# TARGET_ENTITY: AKT2 (Homo sapiens)
# Sequence (P31751 whole entry): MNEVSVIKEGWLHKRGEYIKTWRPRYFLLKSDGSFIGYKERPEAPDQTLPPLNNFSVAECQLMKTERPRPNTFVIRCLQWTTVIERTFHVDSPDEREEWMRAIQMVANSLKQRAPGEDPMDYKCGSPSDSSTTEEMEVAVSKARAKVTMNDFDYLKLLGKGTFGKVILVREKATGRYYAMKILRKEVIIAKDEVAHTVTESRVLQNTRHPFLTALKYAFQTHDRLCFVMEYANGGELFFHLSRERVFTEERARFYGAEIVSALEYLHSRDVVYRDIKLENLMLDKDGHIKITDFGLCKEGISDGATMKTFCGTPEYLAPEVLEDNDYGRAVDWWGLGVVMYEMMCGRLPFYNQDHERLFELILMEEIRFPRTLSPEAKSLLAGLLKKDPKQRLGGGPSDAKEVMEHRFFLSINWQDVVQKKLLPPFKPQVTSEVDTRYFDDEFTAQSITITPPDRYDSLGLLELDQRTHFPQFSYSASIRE
# EXPERIMENTAL_PROTOCOL: Live cell target engagement by NanoBRET competitive probe displacement, AKT2
# RUN_PARAMETERS: transfected HEK293 cells, 2 h at 37° C., read-out: AKT2 IC50: GeoMean IC50
pIC50: −log10 of the molar value.
METRIC: pIC50

Tell me its pIC50 given COc1cc(C(=O)N[C@H]2CCc3cc(-n4c(-c5cccnc5N)nc5ccc(-n6cccn6)nc54)ccc32)cc(C=O)c1O as the entry. 5.70 to 7.00

Specify measured pIC50 for Nc1ncccc1-c1nc2ccc(-c3cscn3)nc2n1-c1ccc2c(c1)CC[C@@H]2NC(=O)c1ccc(O)c(C=O)c1 . 5.70 to 7.00

Supply pIC50 value. Item: CN(C)S(=O)(=O)Nc1ccc(C(=O)N[C@H]2CCc3cc(-n4c(-c5cccnc5N)nc5ccc(-n6cccn6)nc54)ccc32)cc1C=O 5.70 to 7.00
